molecular target: UniProt P22687; test: Inhibition of CETP in rabbit serum after 1 hr by fluorescent cholesteryl esters transfer assay
experimental_readout: IC50 (nM)
Numeric only. Scale: nM

QUERY: Look at this compound and give its reported IC50. CC(C)Oc1cccc(N(Cc2cccc(OC(F)(F)C(F)F)c2)CC(O)C(F)(F)F)c1 (stereo unspecified)
RESULT: 300

###

molecular target: Cholesteryl ester transfer protein (Oryctolagus cuniculus) (UniProt P22687); experiment: Inhibition of CETP in rabbit serum at 10 uM after 1 hr by fluorescent cholesteryl esters transfer assay
Task for the reader: assign each of the following molecules its reported inhibition.
Numeric only. Scale: %

QUERY: Look at this molecule and give its reported inhibition. "COc1ccc(C(=O)c2ccc(/N=C/c3ccc(C(C)(C)C)cc3)cc2)c(OC)c1"
RESULT: 24.9

QUERY: Now this one: "Cc1ccc(Nc2ccc(Nc3ccc(C)cc3)c3c2C(=O)c2cccc(O)c2C3=O)cc1"
RESULT: 14

QUERY: Now this one: "COc1ccc(C(=O)c2ccc(/N=C/c3cccc(C(F)(F)F)c3)cc2)c(OC)c1"
RESULT: 14.9

QUERY: Now this one: "CCCCOc1ccc(NC(=N)Nc2ccc(Cl)cc2)cc1"
RESULT: 0

###

Task for the reader: assign each of the following compounds its reported inhibition.
Biological target: Cholesteryl ester transfer protein (Oryctolagus cuniculus)
Sequence (whole entry): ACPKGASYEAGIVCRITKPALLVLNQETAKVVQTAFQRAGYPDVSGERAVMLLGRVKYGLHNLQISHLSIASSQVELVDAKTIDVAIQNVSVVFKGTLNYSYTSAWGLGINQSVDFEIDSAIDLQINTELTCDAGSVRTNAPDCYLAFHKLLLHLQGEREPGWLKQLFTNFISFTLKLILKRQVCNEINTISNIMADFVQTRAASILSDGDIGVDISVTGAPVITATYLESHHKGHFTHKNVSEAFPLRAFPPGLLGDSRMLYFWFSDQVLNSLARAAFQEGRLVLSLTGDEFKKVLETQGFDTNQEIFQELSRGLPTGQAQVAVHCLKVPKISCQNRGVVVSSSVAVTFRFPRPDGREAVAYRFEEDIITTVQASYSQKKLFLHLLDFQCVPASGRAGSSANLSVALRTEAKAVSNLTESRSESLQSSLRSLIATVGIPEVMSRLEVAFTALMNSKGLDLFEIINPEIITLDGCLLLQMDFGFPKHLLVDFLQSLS
Assay: Inhibition of CETP in rabbit serum at 10 uM after 1 hr by fluorescent cholesteryl esters transfer assay
Numeric only. Scale: %

QUERY: Look at this compound and give its reported inhibition. "Cc1cc(Cl)c(Cl)cc1NC(=O)c1cccc(C(=O)Nc2cc(Cl)c(Cl)cc2C)c1"
RESULT: 0

QUERY: Now this one: "O=C(c1ccc(-c2ccccc2)cc1)c1cccc(/N=C/c2cccc(C(F)(F)F)c2)c1"
RESULT: 33.8

QUERY: Now this one: "COc1ccc(/N=C/c2ccc(N(CCC#N)S(=O)(=O)c3ccccc3)cc2)cc1"
RESULT: 0

QUERY: Now this one: "O=C(c1ccc(/N=C/c2cccc(C(F)(F)F)c2)cc1)c1ccc(-c2ccccc2)cc1"
RESULT: 9.8

QUERY: Now this one: COc1ccc(Cl)cc1C(=O)NCCc1ccc(S(=O)(=O)NC(=O)NC2CCCCC2)cc1 [GLYBURIDE]
RESULT: 35

QUERY: Now this one: COc1ccc2nc3cc(Cl)ccc3c(Nc3ccc(C(O)CCn4cccc4)cc3)c2c1 (stereo not given)
RESULT: 13.4

QUERY: Now this one: C/C=C/c1ccc2oc(-c3ccc(OC4OC(C)C(O)C(O)C4O)cc3)c(C)c2c1 (stereo not given)
RESULT: 9

QUERY: Now this one: "OC(COc1c(Cl)cc(Cl)cc1Cl)COc1c(Cl)cc(Cl)cc1Cl"
RESULT: 0

QUERY: Now this one: "C=CCc1cccc(/C=N/c2ccccc2NS(=O)(=O)c2ccc(C)cc2)c1O"
RESULT: 22.6

QUERY: Now this one: "COc1ccc(C(=O)c2cccc(/N=C/c3ccccc3)c2)cc1"
RESULT: 12.6

Reference source: ChEMBL document CHEMBL1165848
